Measured koff accompanies every entry in the list below.
- assay_target: T1, mfGITR.mmh (Macaca fasicularis)
- T1 construct: soluble monomeric construct; also called Macaca fasicularis (mf) GITR.mmh; cynomolgus GITR protein
- T1 chain: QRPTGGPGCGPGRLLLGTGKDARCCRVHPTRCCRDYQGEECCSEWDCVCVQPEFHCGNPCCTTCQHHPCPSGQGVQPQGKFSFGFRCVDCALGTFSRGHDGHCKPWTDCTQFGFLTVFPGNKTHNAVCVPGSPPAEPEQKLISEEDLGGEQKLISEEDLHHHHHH
- experimental_protocol: SPR 37C, mAb capture
Please reply with the bare figure in s⁻¹ and do not write the unit itself.

H1H14524P (antibody, human IgG1, V domains shown, human IgG1 (H1H)) VH: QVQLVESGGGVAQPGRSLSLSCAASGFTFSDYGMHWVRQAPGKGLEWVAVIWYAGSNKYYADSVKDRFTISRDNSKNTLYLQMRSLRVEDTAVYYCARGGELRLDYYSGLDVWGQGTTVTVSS VL: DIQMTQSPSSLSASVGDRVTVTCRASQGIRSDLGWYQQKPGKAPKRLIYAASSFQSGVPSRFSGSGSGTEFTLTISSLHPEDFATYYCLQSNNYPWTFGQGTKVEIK	0.0189
H1H14523P (antibody, human IgG1, V domains shown, human IgG1 (H1H)) VH: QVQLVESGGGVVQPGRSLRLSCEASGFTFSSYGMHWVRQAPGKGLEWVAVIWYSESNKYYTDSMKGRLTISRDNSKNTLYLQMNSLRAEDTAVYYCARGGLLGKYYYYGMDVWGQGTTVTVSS VL: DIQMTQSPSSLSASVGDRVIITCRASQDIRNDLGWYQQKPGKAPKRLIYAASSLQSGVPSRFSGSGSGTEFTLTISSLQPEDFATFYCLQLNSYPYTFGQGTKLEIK	0.0109
H4H14476P (antibody, human IgG4, V domains shown, human IgG4 (H4H)) VH: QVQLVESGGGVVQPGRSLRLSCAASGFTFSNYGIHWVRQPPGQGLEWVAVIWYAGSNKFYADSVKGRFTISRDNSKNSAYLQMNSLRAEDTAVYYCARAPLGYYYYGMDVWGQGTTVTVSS VL: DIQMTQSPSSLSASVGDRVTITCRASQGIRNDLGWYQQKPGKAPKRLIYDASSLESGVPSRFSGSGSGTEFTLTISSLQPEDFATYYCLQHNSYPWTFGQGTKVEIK	0.0107
H1H14495P (antibody, human IgG1, V domains shown, human IgG1 (H1H)) VH: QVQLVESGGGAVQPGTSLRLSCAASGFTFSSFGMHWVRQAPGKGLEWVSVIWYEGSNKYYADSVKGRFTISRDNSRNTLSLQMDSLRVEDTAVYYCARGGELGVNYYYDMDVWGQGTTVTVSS VL: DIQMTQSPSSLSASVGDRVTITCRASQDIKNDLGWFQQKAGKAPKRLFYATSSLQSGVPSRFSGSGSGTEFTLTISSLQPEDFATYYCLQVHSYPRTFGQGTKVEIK	0.00723
H1H14474P (antibody, human IgG1, V domains shown, human IgG1 (H1H)) VH: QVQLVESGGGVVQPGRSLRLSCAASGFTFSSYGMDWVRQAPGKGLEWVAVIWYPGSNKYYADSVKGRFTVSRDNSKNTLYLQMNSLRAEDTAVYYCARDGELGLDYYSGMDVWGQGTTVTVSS VL: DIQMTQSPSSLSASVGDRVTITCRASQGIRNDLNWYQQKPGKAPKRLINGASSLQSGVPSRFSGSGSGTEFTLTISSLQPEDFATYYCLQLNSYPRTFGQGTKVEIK	0.00951

Query string: Tell me the measured koff of H1H14486P (antibody, human IgG1, V domains shown, human IgG1 (H1H)) VH: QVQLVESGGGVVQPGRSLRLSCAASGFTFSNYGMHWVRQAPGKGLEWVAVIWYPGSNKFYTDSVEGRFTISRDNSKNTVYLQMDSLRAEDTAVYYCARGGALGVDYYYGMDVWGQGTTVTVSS VL: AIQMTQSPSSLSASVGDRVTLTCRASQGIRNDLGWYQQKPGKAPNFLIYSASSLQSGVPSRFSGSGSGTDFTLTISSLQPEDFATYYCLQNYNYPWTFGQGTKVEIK , please.
Result string: 0.0166

Query string: Next up: H1H14491P (antibody, human IgG1, V domains shown, human IgG1 (H1H)) VH: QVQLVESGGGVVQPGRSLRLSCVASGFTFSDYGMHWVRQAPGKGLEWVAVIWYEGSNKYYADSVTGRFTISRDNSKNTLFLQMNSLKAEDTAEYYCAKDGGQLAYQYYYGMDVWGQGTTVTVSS VL: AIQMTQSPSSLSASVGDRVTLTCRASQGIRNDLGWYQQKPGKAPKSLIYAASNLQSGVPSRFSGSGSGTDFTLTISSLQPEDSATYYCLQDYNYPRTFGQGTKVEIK
Result string: 0.00889

Query string: And H4H14521P (antibody, human IgG4, V domains shown, human IgG4 (H4H)) VH: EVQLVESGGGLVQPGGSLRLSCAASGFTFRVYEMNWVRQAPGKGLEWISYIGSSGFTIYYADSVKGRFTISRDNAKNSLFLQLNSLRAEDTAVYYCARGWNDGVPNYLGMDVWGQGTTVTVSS VL: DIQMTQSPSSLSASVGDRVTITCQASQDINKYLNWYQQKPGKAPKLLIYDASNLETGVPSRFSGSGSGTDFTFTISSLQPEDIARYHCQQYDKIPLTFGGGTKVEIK ?
Result string: 0.00334

Query string: Try the binder H1H14503P (antibody, human IgG1, V domains shown, human IgG1 (H1H)) VH: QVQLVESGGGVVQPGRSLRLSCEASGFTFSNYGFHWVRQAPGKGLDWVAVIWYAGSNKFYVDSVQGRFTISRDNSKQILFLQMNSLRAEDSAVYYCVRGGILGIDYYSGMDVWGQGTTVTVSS VL: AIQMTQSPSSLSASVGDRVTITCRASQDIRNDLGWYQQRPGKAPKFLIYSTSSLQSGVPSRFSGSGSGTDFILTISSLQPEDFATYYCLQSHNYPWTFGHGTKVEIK
Result string: 0.0056
